Sourced from patent US8168667B2

- measurement-target: UniProtKB P10275
- Sequence (P10275 whole entry): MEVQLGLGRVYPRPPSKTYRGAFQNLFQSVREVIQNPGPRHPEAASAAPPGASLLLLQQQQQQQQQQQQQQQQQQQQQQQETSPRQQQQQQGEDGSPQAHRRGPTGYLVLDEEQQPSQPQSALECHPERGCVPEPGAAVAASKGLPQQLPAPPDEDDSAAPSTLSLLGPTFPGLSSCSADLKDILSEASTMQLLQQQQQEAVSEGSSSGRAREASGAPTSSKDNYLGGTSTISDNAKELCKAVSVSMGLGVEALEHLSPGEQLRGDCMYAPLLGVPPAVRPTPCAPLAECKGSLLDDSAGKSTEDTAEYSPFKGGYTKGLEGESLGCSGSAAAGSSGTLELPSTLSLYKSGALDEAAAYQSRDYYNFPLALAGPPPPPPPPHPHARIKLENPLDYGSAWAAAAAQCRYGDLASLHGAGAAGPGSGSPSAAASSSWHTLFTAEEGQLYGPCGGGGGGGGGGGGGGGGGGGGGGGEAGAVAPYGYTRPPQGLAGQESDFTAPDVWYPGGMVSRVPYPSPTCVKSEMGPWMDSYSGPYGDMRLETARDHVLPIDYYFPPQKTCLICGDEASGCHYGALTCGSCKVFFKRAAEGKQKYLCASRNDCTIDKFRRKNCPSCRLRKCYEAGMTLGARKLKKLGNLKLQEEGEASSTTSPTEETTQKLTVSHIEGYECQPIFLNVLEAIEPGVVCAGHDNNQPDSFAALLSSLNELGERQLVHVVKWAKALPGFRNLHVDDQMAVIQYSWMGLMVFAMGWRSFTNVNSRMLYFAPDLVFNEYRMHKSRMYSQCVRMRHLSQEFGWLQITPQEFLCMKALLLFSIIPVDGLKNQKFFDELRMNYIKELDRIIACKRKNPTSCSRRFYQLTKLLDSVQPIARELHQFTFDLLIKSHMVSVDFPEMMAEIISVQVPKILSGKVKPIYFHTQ
- protocol: Functional response test: hAR transactivation (luciferase reporter) in HALP2 cells
- Assay type: cell-based
- test-context: agonism; HALP2 cells (HeLa, hAR + ARE-luciferase), 20 hours at 37° C.
Readings of EC50 for the listed molecules
Numeric answer only, unit nM assumed.

Some entries whose results are on file:
1) O=C1C(c2ccc(O)cc2)N(CCO)C(=O)N1c1ccc(F)c(F)c1 (stereo not shown) : 490
2) O=C1C(c2ccc(O)cc2)N(Cc2ccc3c(c2)OCO3)C(=O)N1c1ccc(F)c(C(F)(F)F)c1 (stereo not shown) : 49
3) CN(C)CCN1C(=O)N(c2ccc(Cl)c(C(F)(F)F)c2)C(=O)C1c1ccc(O)cc1 (stereo not shown) : 77.5

Below: the item to evaluate.
(Q) Please give the measured EC50 for this molecule: N#CCCN1C(=O)N(c2ccc(F)c(C(F)(F)F)c2)C(=O)C1c1ccc(O)cc1 (stereo not shown)
(A) 212
